Origin of the recorded values: the NIST ThermoML archive (doi:10.1016/j.jct.2017.02.023)

conditions: 318.15 K; 81.5 kPa; Liquid; Vibrating tube method
Doc: threshold 800 kg/m3 (exclusive). Items with mass density beneath it return true; others return false.

[
  {
    "smilesString": "CC(C)O",
    "classLabel": "true"
  },
  {
    "smilesString": "CNC1CCCCC1",
    "classLabel": "false"
  }
]

###

assay: refractive index (Na D-line) (dimensionless); conditions: 328.15 K; 81.5 kPa; Liquid; Standard Abbe refractometry
Here the recorded refractive index is given for each entry.
readoutLabel: refractive index

[
  {
    "molecule": "CNC1CCCCC1 [N-methylcyclohexylamine]",
    "numericResult": 1.43809
  },
  {
    "molecule": "CCCCCC(C)O (configuration not stated) [2-heptanol]",
    "numericResult": 1.40647
  },
  {
    "molecule": "CC(C)O [propan-2-ol]",
    "numericResult": 1.36181
  },
  {
    "molecule": "CCCCC(C)O (configuration not stated) [2-hexanol]",
    "numericResult": 1.3996
  },
  {
    "molecule": "CCCCCCC(C)O (configuration not stated) [2-octanol]",
    "numericResult": 1.41224
  },
  {
    "molecule": "CCC(C)O (configuration not stated) [butan-2-ol]",
    "numericResult": 1.38175
  },
  {
    "molecule": "CCCC(C)O (configuration not stated) [pentan-2-ol]",
    "numericResult": 1.39126
  }
]

###

Here the recorded mass density is given for each entry.
conditions: 328.15 K; 81.5 kPa; Liquid; Vibrating tube method
± gives the expanded uncertainty stated by the source.
readoutLabel: mass density

[
  {
    "compound": "CCCC(C)O (configuration not stated)",
    "result": "779.17 ± 1.6 kg/m3"
  },
  {
    "compound": "CCCCCC(C)O (configuration not stated)",
    "result": "789.38 ± 1.6 kg/m3"
  },
  {
    "compound": "CNC1CCCCC1",
    "result": "838.68 ± 1.6 kg/m3"
  },
  {
    "compound": "CC(C)O",
    "result": "753.12 ± 1.6 kg/m3"
  },
  {
    "compound": "CCCCC(C)O (configuration not stated)",
    "result": "784.6 ± 1.6 kg/m3"
  },
  {
    "compound": "CCC(C)O (configuration not stated)",
    "result": "775.52 ± 1.6 kg/m3"
  },
  {
    "compound": "CCCCCCC(C)O (configuration not stated)",
    "result": "793.06 ± 1.6 kg/m3"
  }
]

###

Here the recorded refractive index is given for each entry.
experiment: refractive index (Na D-line) (dimensionless); conditions: 308.15 K; 81.5 kPa; Liquid; Standard Abbe refractometry

[
  {
    "compound": "CCCCCC(C)O (configuration not stated)",
    "refractive index": 1.41505
  },
  {
    "compound": "CCCC(C)O (configuration not stated)",
    "refractive index": 1.40029
  },
  {
    "compound": "CC(C)O",
    "refractive index": 1.37097
  },
  {
    "compound": "CNC1CCCCC1",
    "refractive index": 1.44812
  },
  {
    "compound": "CCCCCCC(C)O (configuration not stated)",
    "refractive index": 1.42073
  },
  {
    "compound": "CCC(C)O (configuration not stated)",
    "refractive index": 1.39105
  },
  {
    "compound": "CCCCC(C)O (configuration not stated)",
    "refractive index": 1.40853
  }
]

###

assay: refractive index (Na D-line) (dimensionless); conditions: 318.15 K; 81.5 kPa; Liquid; Standard Abbe refractometry
Here the recorded refractive index is given for each entry.
readoutLabel: refractive index

[
  {
    "compound": "CC(C)O",
    "numericResult": 1.36665
  },
  {
    "compound": "CCC(C)O (configuration not stated)",
    "numericResult": 1.38646
  },
  {
    "compound": "CCCC(C)O (configuration not stated)",
    "numericResult": 1.39586
  },
  {
    "compound": "CNC1CCCCC1",
    "numericResult": 1.4431
  },
  {
    "compound": "CCCCCC(C)O (configuration not stated)",
    "numericResult": 1.41076
  },
  {
    "compound": "CCCCCCC(C)O (configuration not stated)",
    "numericResult": 1.41648
  },
  {
    "compound": "CCCCC(C)O (configuration not stated)",
    "numericResult": 1.40413
  }
]

###

conditions: 308.15 K; 81.5 kPa; Liquid; Vibrating tube method
Rule: mass density under 800 kg/m3 gives Not fulfilled, otherwise Fulfilled.

[
  {
    "compound": "CNC1CCCCC1 [N-methylcyclohexylamine]",
    "classLabel": "Fulfilled"
  },
  {
    "compound": "CC(C)O [propan-2-ol]",
    "classLabel": "Not fulfilled"
  }
]

###

test: refractive index (Na D-line) (dimensionless); conditions: 298.15 K; 81.5 kPa; Liquid; Standard Abbe refractometry
readoutLabel: refractive index

[
  {
    "compound": "CCCCCCC(C)O (configuration not stated) [2-octanol]",
    "numericResult": 1.42483
  },
  {
    "compound": "CCCCCC(C)O (configuration not stated) [2-heptanol]",
    "numericResult": 1.41924
  },
  {
    "compound": "CCCC(C)O (configuration not stated) [pentan-2-ol]",
    "numericResult": 1.4045
  },
  {
    "compound": "CCCCC(C)O (configuration not stated) [2-hexanol]",
    "numericResult": 1.41296
  },
  {
    "compound": "CC(C)O [propan-2-ol]",
    "numericResult": 1.37511
  },
  {
    "compound": "CCC(C)O (configuration not stated) [butan-2-ol]",
    "numericResult": 1.39544
  },
  {
    "compound": "CNC1CCCCC1 [N-methylcyclohexylamine]",
    "numericResult": 1.45306
  }
]

###

conditions: 298.15 K; 81.5 kPa; Liquid; Vibrating tube method
Here the recorded mass density is given for each entry.

[
  {
    "compound": "CCCCC(C)O (configuration not stated) [2-hexanol]",
    "mass density / kg/m3": 810.17
  },
  {
    "compound": "CCCCCCC(C)O (configuration not stated) [2-octanol]",
    "mass density / kg/m3": 817.05
  },
  {
    "compound": "CNC1CCCCC1 [N-methylcyclohexylamine]",
    "mass density / kg/m3": 865.2
  },
  {
    "compound": "CC(C)O [propan-2-ol]",
    "mass density / kg/m3": 781.05
  },
  {
    "compound": "CCCC(C)O (configuration not stated) [pentan-2-ol]",
    "mass density / kg/m3": 805.37
  },
  {
    "compound": "CCC(C)O (configuration not stated) [butan-2-ol]",
    "mass density / kg/m3": 802.71
  },
  {
    "compound": "CCCCCC(C)O (configuration not stated) [2-heptanol]",
    "mass density / kg/m3": 813.36
  }
]

###

conditions: 318.15 K; 81.5 kPa; Liquid; Vibrating tube method
readoutLabel: mass density (kg/m3)

[
  {
    "compound": "CCCCC(C)O (stereo not given) [2-hexanol]",
    "readoutLabel": "mass density",
    "numericResult": 793.57
  },
  {
    "compound": "CCCC(C)O (stereo not given) [pentan-2-ol]",
    "readoutLabel": "mass density",
    "numericResult": 788.38
  },
  {
    "compound": "CCC(C)O (stereo not given) [butan-2-ol]",
    "readoutLabel": "mass density",
    "numericResult": 785.32
  },
  {
    "compound": "CCCCCC(C)O (stereo not given) [2-heptanol]",
    "readoutLabel": "mass density",
    "numericResult": 797.65
  },
  {
    "compound": "CCCCCCC(C)O (stereo not given) [2-octanol]",
    "readoutLabel": "mass density",
    "numericResult": 801.32
  }
]

###

Here the recorded mass density is given for each entry.
conditions: 308.15 K; 81.5 kPa; Liquid; Vibrating tube method

[
  {
    "compound": "CCC(C)O (stereo not given)",
    "mass density / kg/m3": 794.2
  },
  {
    "compound": "CCCCCC(C)O (stereo not given)",
    "mass density / kg/m3": 805.72
  },
  {
    "compound": "CCCCC(C)O (stereo not given)",
    "mass density / kg/m3": 801.94
  },
  {
    "compound": "CCCC(C)O (stereo not given)",
    "mass density / kg/m3": 796.95
  },
  {
    "compound": "CCCCCCC(C)O (stereo not given)",
    "mass density / kg/m3": 809.43
  }
]
